Entries and their half-life
test description: In vivo pharmacokinetic study, plasma and brain
Parameters: species or system male Wistar rats
condition context: male, Wistar, po; plasma, rat, 10 mg/kg p.o.; read-out: t0.5 (terminal half-life)
State the value with its unit after it.

Tell me measured half-life for O=C(N[C@H]1CCNC1)c1ccn(S(=O)(=O)c2cccc(Cl)c2)c1-c1ccc(F)cc1 please.
4.95 h

# ---- query molecule ----
Tell me measured half-life for O=C(N[C@@H]1CCNC1)c1ccn(S(=O)(=O)c2cccc(Cl)c2)c1-c1ccc(F)cc1 please.
1.96 h

----------
test description: In vivo pharmacokinetic study, plasma and brain
Design: species or system male Wistar rats
condition context: male, Wistar, po; brain, rat, 10 mg/kg p.o.
endpoint name: Tmax
State the value with its unit after it.

Tell me measured Tmax for O=C(N[C@@H]1CCNC1)c1ccn(S(=O)(=O)c2cccc(Cl)c2)c1-c1ccc(F)cc1 [Compound 27] please.
5 min

Others:
Tell me measured Tmax for O=C(N[C@H]1CCNC1)c1ccn(S(=O)(=O)c2cccc(Cl)c2)c1-c1ccc(F)cc1 [Compound 28] please.
5 min

Hello, the source for this data is paper PMC8041276, in case you need it.
